Tested on: HL-60(TB) leukemia
test.details: NCI-60 one-dose screen, 48 h (100 = growth as untreated, 0 = no growth, -100 = all killed)
condition.label: 10 µM unless noted
This is part of a sample that, as a whole, favours compounds with a hit. Of some 83,000 tested, about 20% had one in any assay.
value.kind: growth (%)

INSERT INTO results (compound, target_desc, value_kind, quantitative_result) VALUES
  ('O=C1c2c(c3c4cc(F)ccc4oc3c3[nH]c4ccc(Br)cc4c23)C(=O)N1O', 'HL-60(TB) leukemia', 'growth', 16.9),
  ('N#Cc1c(-c2cccc(O)c2O)cc(-c2ccc3ccccc3c2)[nH]c1=O', 'HL-60(TB) leukemia', 'growth', 56.6),
  ('COc1ccc(C(=O)Nc2ccc(-c3ccc4c(c3)NC(=O)/C4=C\c3ccc[nH]3)cc2)cc1', 'HL-60(TB) leukemia', 'growth', 89.6),
  ('COC(=O)c1cc(C(C)=O)n2c3ccccc3c3ccccc3c12', 'HL-60(TB) leukemia', 'growth', 101),
  ('COc1ccc2[nH]c(O)c(N=Nc3nc(-c4ccc(Cl)cc4)cs3)c2c1', 'HL-60(TB) leukemia', 'growth', 58),
  ('S=C(Nc1ccccc1)Nc1ccc(OCc2nc3ccccc3[nH]2)cc1', 'HL-60(TB) leukemia', 'growth', 20.2),
  ('Cc1ccc([C@H]2C(C(=O)c3ccc(Cl)cc3)C3(N[C@@H]2c2ccccc2)C(=O)Nc2ccccc23)cc1 (stereo not given in full)', 'HL-60(TB) leukemia', 'growth', -22.2),
  ('O=C(COc1ccc(NC(=O)Nc2ccc(Cl)cc2)cc1)N/N=C/c1ccccc1', 'HL-60(TB) leukemia', 'growth', 45.8),
  ('C#C[C@]1(O)CC[C@H]2[C@@H]3CC=C4c5sc(-c6ccc([N+](=O)[O-])cc6)nc5CC[C@]4(C)[C@H]3CC[C@@]21C', 'HL-60(TB) leukemia', 'growth', 23.7),
  ('Cn1cc(-c2cc3nc(-c4c[nH]c5ccccc45)cc(N)n3n2)c2ccccc21', 'HL-60(TB) leukemia', 'growth', -41.2),
  ('Cn1cc(-c2cc(N)n3nc(-c4c[nH]c5ccccc45)cc3n2)c2cccnc21', 'HL-60(TB) leukemia', 'growth', -70.9),
  ('C/C(=N\NC(N)=S)c1ccc(Nc2nc(SC(C)C)nc(-c3ccccc3)c2C#N)cc1', 'HL-60(TB) leukemia', 'growth', 89.9),
  ('N#Cc1ccc(-c2nn(-c3ccc(C(=O)O)cc3)cc2CNc2ccc(Oc3ccccc3)cc2)cc1', 'HL-60(TB) leukemia', 'growth', 34.4),
  ('CC1=C(C)C(=O)C(NCCN2CCOCC2)=C(Br)C1=O', 'HL-60(TB) leukemia', 'growth', -24.9),
  ('COc1cnc2c(c1)C(=O)c1c-2n(CCCNCCO)c(=O)c2cc(OC)c(OC)cc12', 'HL-60(TB) leukemia', 'growth', 61.3),
  ('OC1CCC(Cn2c(C(F)(F)F)cc3c(Cl)ncnc32)CC1 (stereo not given)', 'HL-60(TB) leukemia', 'growth', -37.5),
  ('COC[C@@H](CC(C)C)N=C1NC(=O)/C(=C/c2ccc3ncoc3c2)N1', 'HL-60(TB) leukemia', 'growth', 1.03),
  ('Cn1cc(-c2cc3nc(-c4c[nH]c5ccc(Br)cc45)cc(N)n3n2)c2ccccc21', 'HL-60(TB) leukemia', 'growth', -45.3),
  ('CN1CCc2c(sc3ncnc(N/N=C/c4ccc5ccccc5c4)c23)C1', 'HL-60(TB) leukemia', 'growth', -14.6),
  ('Cc1ccc(Cc2cnc(NC(=O)c3ccc(/C=C4\SC(=S)N(C)C4=O)cc3)s2)cc1', 'HL-60(TB) leukemia', 'growth', 18);

Source: PubChem BioAssay (NCI)
